SUBJECT_OF_TEST: human GPR17 receptor (Homo sapiens, UniProt Q13304)
Sequence (Q13304 whole entry): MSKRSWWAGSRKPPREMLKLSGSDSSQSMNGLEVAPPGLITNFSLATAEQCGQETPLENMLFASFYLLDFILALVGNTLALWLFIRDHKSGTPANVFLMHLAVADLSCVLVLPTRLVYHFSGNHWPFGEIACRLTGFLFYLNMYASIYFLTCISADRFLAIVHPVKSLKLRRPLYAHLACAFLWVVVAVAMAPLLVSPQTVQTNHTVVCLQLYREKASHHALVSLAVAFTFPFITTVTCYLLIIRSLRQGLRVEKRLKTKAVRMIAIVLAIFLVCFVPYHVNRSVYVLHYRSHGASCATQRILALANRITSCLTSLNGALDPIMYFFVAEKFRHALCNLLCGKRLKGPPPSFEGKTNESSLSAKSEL
TEST_METHOD_NOTES: Calcium mobilization functional assay (Fluo-8, FLIPR TETRA) in HEK-293 hGPR17 (Gα-q assay)
TEST_CONTEXT: antagonism of MDL29,951 (~EC80) induced Ca2+ signal; cell line (HEK-293 hGPR17 or HEK-293 Suchi5 hGPR17) not given
pIC50: −log10 of the molar value.
MEASURED_QUANTITY: pIC50

Solved entries (count: 5):
COMPOUND | MEASURED_QUANTITY | VALUE_OBSERVED
COCc1cccc(Cc2c[nH]cc2S(=O)(=O)Nc2ccc(C#N)cc2F)c1 [Cpd 368] | pIC50 | 5.30 to 6.30
O=S(=O)(Nc1cc(F)c(C(F)(F)F)cc1F)c1c[nH]c(-c2ccc(Cl)cc2)c1 [Cpd 297] | pIC50 | 4.30 to 5.30
CC(C)c1cccc(-c2cc(S(=O)(=O)Nc3ccc(C#N)cc3F)c[nH]2)c1 [Cpd 022] | pIC50 | 4.30 to 5.30
N#Cc1ccc(NS(=O)(=O)c2c[nH]c(-c3cccn(CC(F)(F)F)c3=O)c2)c(F)c1 [Cpd 614] | pIC50 | 4.30 to 5.30
Cc1csc(-c2cc(S(=O)(=O)Nc3cc(F)c(C#N)cc3F)c[nH]2)n1 [Cpd 649] | pIC50 | > 6.30

For N#Cc1ccc(NS(=O)(=O)c2c[nH]cc2Cc2cccc(OCC3CC3)c2)c(F)c1 [Cpd 342] on human GPR17 receptor (Homo sapiens, UniProt Q13304), measured pIC50 was 5.30 to 6.30

pIC50 for human GPR17 receptor (Homo sapiens, UniProt Q13304) with input N#Cc1ccc(NS(=O)(=O)c2c[nH]c(-c3ccccc3)c2)c(Cl)c1 [Cpd 036] equals 5.30 to 6.30

Tested on human GPR17 receptor (Homo sapiens, UniProt Q13304): Cc1cccnc1-c1cc(S(=O)(=O)Nc2ccc(C#N)cc2F)c[nH]1 [Cpd 348] . Observed pIC50: > 6.30
